compounds and their reported Tmax
- experiment description: Pharmacokinetics of ginsenosides in human plasma after single or repeated
- Type: in vivo
- measurement setup: male, human, plasma, po, 3 pouches of red ginseng extract
The reply should contain only the number, in h.

Take a look at these entries with their results.
CC(C)=CCC[C@](C)(O[C@@H]1O[C@H](CO)[C@@H](O)[C@H](O)[C@H]1O)[C@H]1CC[C@]2(C)[C@@H]1[C@H](O)C[C@@H]1[C@@]3(C)CC[C@H](O[C@@H]4O[C@H](CO)[C@@H](O)[C@H](O)[C@H]4O[C@@H]4O[C@H](CO)[C@@H](O)[C@H](O)[C@H]4O)C(C)(C)[C@@H]3CC[C@]12C    4.87
CC(C)=CCC[C@](C)(O[C@@H]1O[C@H](CO[C@@H]2O[C@H](CO)[C@@H](O)[C@H](O)[C@H]2O)[C@@H](O)[C@H](O)[C@H]1O)[C@H]1CC[C@]2(C)[C@@H]1[C@H](O)C[C@@H]1[C@@]3(C)CC[C@H](O[C@@H]4O[C@H](CO)[C@@H](O)[C@H](O)[C@H]4O[C@@H]4O[C@H](CO)[C@@H](O)[C@H](O)[C@H]4O)C(C)(C)[C@@H]3CC[C@]12C    3.53
CC(C)=CCC[C@](C)(O[C@@H]1O[C@H](CO[C@@H]2OC[C@H](O)[C@H](O)[C@H]2O)[C@@H](O)[C@H](O)[C@H]1O)[C@H]1CC[C@]2(C)[C@@H]1[C@H](O)C[C@@H]1[C@@]3(C)CC[C@H](O[C@@H]4O[C@H](CO)[C@@H](O)[C@H](O)[C@H]4O[C@@H]4O[C@H](CO)[C@@H](O)[C@H](O)[C@H]4O)C(C)(C)[C@@H]3CC[C@]12C    3.87

Proceed to the following item.
Req: Fill in the blank: the reported Tmax of `CC(C)=CCC[C@](C)(O[C@@H]1O[C@H](CO[C@@H]2O[C@@H](CO)[C@H](O)[C@H]2O)[C@@H](O)[C@H](O)[C@H]1O)[C@H]1CC[C@]2(C)[C@@H]1[C@H](O)C[C@@H]1[C@@]3(C)CC[C@H](O[C@@H]4O[C@H](CO)[C@@H](O)[C@H](O)[C@H]4O[C@@H]4O[C@H](CO)[C@@H](O)[C@H](O)[C@H]4O)C(C)(C)[C@@H]3CC[C@]12C` is ____.
Resp: 3.68
